Can you tell me MIC for the items I'm about to list?
# Tested on: Proteus rettgeri NIH 96
# measurement.description: antimicrobial activity, serial dilution method on agar plate
# Assay type: cell-based
# experimental.parameters: Providencia rettgeri, NIH96, inoculum 1 × 10^6 cells/ml; read-out: Minimum Inhibitory Concentration
One number for each entry, in µg/mL.

Examples from the recorded data:
# compound, measurement.kind, recorded.measurement
rows = [
    ("CC1Cc2c(N3CCN(C)CC3)c(F)cc3c(=O)c(C(=O)O)cn1c23 (stereo not shown)", "MIC", 0.1),
    ("CC1Cc2c(Cl)ccc3c(=O)c(C(=O)O)cn1c23 (stereo not shown)", "MIC", 0.2),
    ("CC1CCc2c(N3CCN(C)CC3)c(Cl)cc3c(=O)c(C(=O)O)cn1c23 (stereo not shown)", "MIC", 0.4),
    ("CC1CCc2c(N3CCN(C)CC3)c(F)cc3c(=O)c(C(=O)O)cn1c23 (stereo not shown)", "MIC", 0.4),
]

I need MIC for every entry listed below, if you could help.
1. CC1Cc2c(N3CCN(C)CC3)c(Cl)cc3c(=O)c(C(=O)O)cn1c23 (stereo not shown)
2. CC1CCc2c(N3CCN(C=O)CC3)c(Cl)cc3c(=O)c(C(=O)O)cn1c23 (stereo not shown)
3. CC1CCc2cc(F)cc3c(=O)c(C(=O)O)cn1c23 (stereo not shown)

Reply:
1. 0.2
2. 0.8
3. 0.1

====

# Test system: Pseudomonas aeruginosa NCTC 10490
# measurement.description: antimicrobial activity, serial dilution method on agar plate
# Assay type: cell-based
# experimental.parameters: NCTC10490, inoculum 1 × 10^6 cells/ml, read-out: Minimum Inhibitory Concentration
Task for the reader: assign each of the following molecules its reported MIC.
Give bare numbers, in µg/mL.

The cases that follow already have their MIC on record.
# molecule, subject.of.test, MIC / µg/mL
records = [
    ("CC1Cc2c(Cl)ccc3c(=O)c(C(=O)O)cn1c23 (stereo not shown) [G]", "Pseudomonas aeruginosa NCTC 10490", 12.5),
    ("CC1CCc2c(N3CCN(C)CC3)c(Cl)cc3c(=O)c(C(=O)O)cn1c23 (stereo not shown) [Compound U]", "Pseudomonas aeruginosa NCTC 10490", 1.6),
    ("CC1Cc2c(N3CCN(C)CC3)c(F)cc3c(=O)c(C(=O)O)cn1c23 (stereo not shown) [a]", "Pseudomonas aeruginosa NCTC 10490", 1.6),
    ("CC1CCc2cc(F)cc3c(=O)c(C(=O)O)cn1c23 (stereo not shown) [F]", "Pseudomonas aeruginosa NCTC 10490", 12.5),
    ("CC1Cc2c(N3CCN(C)CC3)c(Cl)cc3c(=O)c(C(=O)O)cn1c23 (stereo not shown) [Compound Z]", "Pseudomonas aeruginosa NCTC 10490", 3.1),
    ("CC1CCc2c(N3CCN(C)CC3)c(F)cc3c(=O)c(C(=O)O)cn1c23 (stereo not shown) [Compound W]", "Pseudomonas aeruginosa NCTC 10490", 1.6),
]

Now for the molecule whose MIC we want.
Task item: Record request: MIC value, item CC1CCc2c(N3CCN(C=O)CC3)c(Cl)cc3c(=O)c(C(=O)O)cn1c23 (stereo not shown) [Compound V]
Reply: 1.6

====

# measurement.description: in vitro
# experimental.parameters: human, 50% human serum
measurement.kind: fraction unbound at 2 h

Task item: Reported fraction unbound at 2 h, molecule CCn1cc(C(=O)O)c(=O)c2ccc(C)nc21 [E] : ____
Reply: 0.376
